The values you see were collected from patent US20090311784A1.

experimental system: T1, human ribonuclease inhibitor (human, UniProt P13489 2-461)
T1 construct: also called hRI; hR1
T1 sequence: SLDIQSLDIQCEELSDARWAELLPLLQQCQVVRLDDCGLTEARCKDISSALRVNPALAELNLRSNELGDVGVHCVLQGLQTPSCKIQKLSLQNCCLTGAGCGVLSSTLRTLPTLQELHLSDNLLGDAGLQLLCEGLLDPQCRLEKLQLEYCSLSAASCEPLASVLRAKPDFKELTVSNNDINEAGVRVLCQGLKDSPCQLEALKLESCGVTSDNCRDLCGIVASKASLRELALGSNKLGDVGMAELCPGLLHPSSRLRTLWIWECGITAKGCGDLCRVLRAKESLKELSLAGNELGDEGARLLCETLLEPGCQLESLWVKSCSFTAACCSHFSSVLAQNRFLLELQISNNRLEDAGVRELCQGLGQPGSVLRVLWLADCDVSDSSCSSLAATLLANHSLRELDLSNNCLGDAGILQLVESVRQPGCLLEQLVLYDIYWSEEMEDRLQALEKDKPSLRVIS
measurement notes: calculated from Kd: ΔΔG = -RTln(Kd wild-type/Kd variant)
Provide the reported ΔΔG of each item.
Give bare numbers, in kcal/mol.

State recorded ΔΔG for all listed binders.
1. R39D/N67D/N88A/R91D RNase 1 (enzyme) KESRAKKFQRQHMDSDSSPSSSSTYCNQMMRRRNMTQGDCKPVNTFVHEPLVDVQNVCFQEKVTCKDGQGNCYKSNSSMHITDCRLTAGSDYPNCAYRTSPKERHIIVACEGSPYVPVHFDASVEDST
2. N67D/N88A/G89D/R91D RNase 1 (enzyme) KESRAKKFQRQHMDSDSSPSSSSTYCNQMMRRRNMTQGRCKPVNTFVHEPLVDVQNVCFQEKVTCKDGQGNCYKSNSSMHITDCRLTADSDYPNCAYRTSPKERHIIVACEGSPYVPVHFDASVEDST

[8.4, 7.3]
